- Tested on: Liver microsome
- PROTOCOL TEXT: Retention time of the compound in human liver microsomes in presence of NADPH at 37 degC incubated for 1 hr by liquid chromatography
- Format: ADME
RECORDED METRIC: Retention_time (min)

Cc1cc(CNC(=O)c2ccno2)cc2c1C(=O)N(C(C)C)C2 : 17.06
Cc1cc(CNC(=O)C(=O)C(C#N)C(C)SC[C@H](NC(=O)CC[C@H](N)C(=O)O)C(=O)NCC(=O)O)cc2c1C(=O)N(C(C)C)C2 (single isomer, unassigned; diastereomer 2) : 10.08
Cc1cc(CNC(=O)C(=O)C(C#N)CSC[C@H](NC(=O)CC[C@H](N)C(=O)O)C(=O)NCC(=O)O)cc2c1C(=O)N(C(C)C)C2 (stereo partly specified) : 9.72
Cc1cc(CNC(=O)C(=O)CC#N)cc2c1C(=O)N(C(C)C)C2 : 12.69
Cc1cc(CNC(=O)C(=O)C(C#N)C(C)SC[C@H](NC(=O)CC[C@H](N)C(=O)O)C(=O)NCC(=O)O)cc2c1C(=O)N(C(C)C)C2 (single isomer, unassigned; diastereomer 1) : 10.82
Cc1cc(CNC(=O)/C(O)=C/C#N)cc2c1C(=O)N(C(C)C)C2 : 13.55
